Test system: CAL-148
Assay: drug sensitivity score (DSS), CellTiter-Blue viability (DSS (AUC-based score)); higher = stronger viability inhibition; extreme values may be limits of the assay
Conditions: incubation time: 72 h
readout: drug sensitivity score

>  <compound>
Cc1ccc(F)c(NC(=O)Nc2ccc(-c3cccc4[nH]nc(N)c34)cc2)c1 [Linifanib]

>  <observed_measurement>
0

$$$$
>  <compound>
Clc1ccc(C(c2ccccc2Cl)C(Cl)Cl)cc1 (configuration not stated) [Mitotane]

>  <observed_measurement>
0

$$$$
>  <compound>
C=CCNC1=C2C[C@@H](C)C[C@H](OC)[C@H](O)[C@@H](C)/C=C(\C)[C@H](OC(N)=O)[C@@H](OC)/C=C\C=C(/C)C(=O)NC(=CC1=O)C2=O [Tanespimycin]

>  <observed_measurement>
22.4

$$$$
>  <compound>
Nc1ccn([C@@H]2O[C@H](CO)[C@@H](O)[C@@H]2O)c(=O)n1 [Cytarabine]

>  <observed_measurement>
19.2

$$$$
>  <compound>
CO[C@H]1C[C@@H]2CC[C@@H](C)[C@@](O)(O2)C(=O)C(=O)N2CCCC[C@H]2C(=O)O[C@H]([C@H](C)C[C@@H]2CC[C@@H](OC(=O)C(C)(CO)CO)[C@H](OC)C2)CC(=O)[C@H](C)/C=C(\C)[C@@H](O)[C@@H](OC)C(=O)[C@H](C)C[C@H](C)/C=C/C=C/C=C/1C [Temsirolimus]

>  <observed_measurement>
25.6

$$$$
>  <compound>
Cc1c2oc3c(C)ccc(C(=O)N[C@@H]4C(=O)N[C@H](C(C)C)C(=O)N5CCC[C@H]5C(=O)N(C)CC(=O)N(C)[C@@H](C(C)C)C(=O)O[C@@H]4C)c3nc-2c(C(=O)N[C@@H]2C(=O)N[C@H](C(C)C)C(=O)N3CCC[C@H]3C(=O)N(C)CC(=O)N(C)[C@@H](C(C)C)C(=O)O[C@@H]2C)c(N)c1=O [Dactinomycin]

>  <observed_measurement>
34.1

$$$$
>  <compound>
OC[C@H]1O[C@@H](n2cnc3c2N=CNC[C@H]3O)C[C@@H]1O [Pentostatin]

>  <observed_measurement>
0

$$$$

====

System: MDA-MB-436
Assay: normalised viability (% of control), CellTiter-Blue; higher = more viable cells (about 100 = DMSO control)
Conditions: 10000 nM; incubation time: 72 h
readout: normalised viability (%)

>  <compound>
CN(C)C/C=C/C(=O)Nc1cc2c(Nc3ccc(F)c(Cl)c3)ncnc2cc1O[C@H]1CCOC1 [Afatinib]

>  <readout>
normalised viability

>  <unit_of_measurement>
%

>  <observed_measurement>
17.3

$$$$
>  <compound>
Nc1ccn([C@@H]2O[C@H](CO)[C@@H](O)[C@@H]2O)c(=O)n1 [Cytarabine]

>  <readout>
normalised viability

>  <unit_of_measurement>
%

>  <observed_measurement>
74.1

$$$$
>  <compound>
N#CC[C@H](C1CCCC1)n1cc(-c2ncnc3[nH]ccc23)cn1 [Ruxolitinib]

>  <readout>
normalised viability

>  <unit_of_measurement>
%

>  <observed_measurement>
102

$$$$
>  <compound>
Clc1ccc(C(c2ccccc2Cl)C(Cl)Cl)cc1 (stereo not given) [Mitotane]

>  <readout>
normalised viability

>  <unit_of_measurement>
%

>  <observed_measurement>
90.9

$$$$
>  <compound>
COc1cccc2cc(-c3nc([C@H]4CC[C@H](C(=O)O)CC4)n4ncnc(N)c34)[nH]c12 [OSI-027]

>  <readout>
normalised viability

>  <unit_of_measurement>
%

>  <observed_measurement>
31.6

$$$$
